The reported measurements were obtained from patent US6087355A.

Recorded MIC values (E. faecium A491(Amp^R)) are given below.
Where a name gives a salt, the structure may show the parent alone.

// worked examples, MIC included
// lookup MIC | system=E. faecium A491(Amp^R) | key= NCCSc1cnccc1SC1=C(C(=O)O)N2C(=O)[C@@H](NC(=O)/C(=N\O)c3csc(N)n3)[C@H]2SC1 [Cmpd 20, trifluoroacetic acid salt]
> 32 µg/mL

// lookup MIC | system=E. faecium A491(Amp^R) | key= N=C(N)SCc1nnsc1SC1=C(C(=O)O)N2C(=O)[C@@H](NC(=O)/C(=N\O)c3csc(N)n3)[C@H]2SC1 [Cmpd 4, trifluoroacetic acid salt]
> 32 µg/mL

// lookup MIC | system=E. faecium A491(Amp^R) | key= `NCCSCc1cnccc1SC1=C(C(=O)O)N2C(=O)[C@@H](NC(=O)/C(=N\O)c3ccccc3)[C@H]2SC1.O=C(O)C(F)(F)F`
8 µg/mL

// lookup MIC | system=E. faecium A491(Amp^R) | key= NCC(=O)NCCSCc1cnccc1SC1=C(C(=O)O)N2C(=O)[C@@H](NC(=O)/C(=N\O)c3csc(N)n3)[C@H]2SC1 [Cmpd 24, trifluoroacetic acid salt]
> 32 µg/mL

// lookup MIC | system=E. faecium A491(Amp^R) | key= NCCS(=O)(=O)Cc1cnccc1SC1=C(C(=O)O)N2C(=O)[C@@H](NC(=O)/C(=N\O)c3nc(N)sc3Cl)[C@H]2SC1 [Cmpd 45, trifluoroacetic acid salt]
16 µg/mL

Next:
// lookup MIC | system=E. faecium A491(Amp^R) | key= N=C(N)SCc1ncsc1SC1=C(C(=O)O)N2C(=O)[C@@H](NC(=O)/C(=N\O)c3csc(N)n3)[C@H]2SC1 [Cmpd 7, trifluoroacetic acid salt]
> 32 µg/mL
